assay: Inhibition of TAU derived synthetic hexapeptide AcPHF6 fibril formation at compound:AcPHF6 ratio of 1:1 to 1:64 incubated for 60 mins by thioflavin S fluorescence assay
Calls of active or inactive are those of the source. The rule behind the calls is not given here.
measurementName: inhibition

1) CC[C@@H](C)[C@H]1NC(=O)[C@@H]2CCCN2C(=O)[C@@H]2CCCN2C(=O)[C@H]([C@@H](C)CC)NC(=O)[C@H](CO)NC(=O)[C@H](CC(N)=O)NC(=O)[C@H](CCC(=O)O)NC(=O)[C@@H]2CSSC[C@H](NC1=O)C(=O)N[C@@H](CCC(N)=O)C(=O)N[C@H](CCCCN)C(=O)N[C@H](CC(C)C)C(=O)N1CCC[C@H]1C(=O)N[C@H](CC(=O)O)C(=O)NCC(=O)N[C@H](CC(C)C)C(=O)N[C@@H](Cc1ccc(O)cc1)C(=O)N[C@H](CCC(N)=O)C(=O)N2	Active
2) CC[C@H](C)[C@@H]1NC(=O)[C@H](CCC(N)=O)NC(=O)[C@H](C(C)C)NC(=O)CNC(=O)[C@H]2CCCN2C(=O)[C@H](C(C)C)NC(=O)[C@H](C)NC(=O)[C@H](Cc2ccccc2)NC(=O)[C@@H]2CSSC[C@H](NC1=O)C(=O)N[C@@H](Cc1ccc(O)cc1)C(=O)N[C@@H](CCCCN)C(=O)N[C@@H](CO)C(=O)N[C@@H]([C@@H](C)CC)C(=O)N1CCC[C@H]1C(=O)N1CCC[C@H]1C(=O)N[C@@H]([C@@H](C)CC)C(=O)N2	Active
